experimental_conditions: 393.15 K; 7500 kPa; Liquid
Recorded mass density by entry
I only need the number, in kg/m3, no unit after it.

Worked cases, mass density given:
• CCn1cc[n+](CC)c1.O=S(=O)([N-]S(=O)(=O)C(F)(F)F)C(F)(F)F [1,3-diethylimidazolium bis[(trifluoromethyl)sulfonyl]imide] = 1372.5
• CCCCCCCCCCn1cc[n+](C)c1.O=S(=O)([N-]S(=O)(=O)C(F)(F)F)C(F)(F)F = 1200.9
• CCOS(=O)(=O)[O-].CCn1cc[n+](C)c1 [1-ethyl-3-methylimidazolium ethyl sulfate] = 1180.7

Now, please, on to the next compound.
Look up mass density: CCn1cc[n+](C)c1.COS(=O)(=O)[O-] [1-ethyl-3-methylimidazolium methylsulfate]
1221.8

----------
Recorded mass density by entry
experimental_conditions: 303.15 K; 7500 kPa; Liquid
I only need the number, in kg/m3, no unit after it.

Worked cases, mass density given:
• CCCCCCCCCCn1cc[n+](C)c1.O=S(=O)([N-]S(=O)(=O)C(F)(F)F)C(F)(F)F = 1280.3
• CCn1cc[n+](CC)c1.O=S(=O)([N-]S(=O)(=O)C(F)(F)F)C(F)(F)F [1,3-diethylimidazolium bis[(trifluoromethyl)sulfonyl]imide] = 1463.9
• CCn1cc[n+](C)c1.COS(=O)(=O)[O-] [1-ethyl-3-methylimidazolium methylsulfate] = 1286.4

Now, please, on to the next compound.
Look up mass density: CCOS(=O)(=O)[O-].CCn1cc[n+](C)c1 [1-ethyl-3-methylimidazolium ethyl sulfate]
1243.8

----------
experimental_conditions: 373.15 K; 5000 kPa; Liquid
measured_metric: mass density (kg/m3)
I only need the number, in kg/m3, no unit after it.

Worked cases, mass density given:
- CCn1cc[n+](C)c1.COS(=O)(=O)[O-] [1-ethyl-3-methylimidazolium methylsulfate]: 1234
- CCCCCCCCCCn1cc[n+](C)c1.O=S(=O)([N-]S(=O)(=O)C(F)(F)F)C(F)(F)F: 1214.8
- CCn1cc[n+](CC)c1.O=S(=O)([N-]S(=O)(=O)C(F)(F)F)C(F)(F)F [1,3-diethylimidazolium bis[(trifluoromethyl)sulfonyl]imide]: 1389.5

Now, please, on to the next compound.
Look up mass density: CCOS(=O)(=O)[O-].CCn1cc[n+](C)c1 [1-ethyl-3-methylimidazolium ethyl sulfate]
1192.6

----------
experimental_conditions: 353.15 K; 100 kPa; Liquid
measured_metric: mass density (kg/m3)
I only need the number, in kg/m3, no unit after it.

- CCCCCCCCCCn1cc[n+](C)c1.O=S(=O)([N-]S(=O)(=O)C(F)(F)F)C(F)(F)F: 1228.6

Look up mass density: CCn1cc[n+](C)c1.COS(=O)(=O)[O-] [1-ethyl-3-methylimidazolium methylsulfate]
1245.5

Look up mass density: CCOS(=O)(=O)[O-].CCn1cc[n+](C)c1 [1-ethyl-3-methylimidazolium ethyl sulfate]
1204.2

Look up mass density: CCn1cc[n+](CC)c1.O=S(=O)([N-]S(=O)(=O)C(F)(F)F)C(F)(F)F [1,3-diethylimidazolium bis[(trifluoromethyl)sulfonyl]imide]
1404.5

----------
Recorded mass density by entry
experimental_conditions: 393.15 K; 30000 kPa; Liquid
I only need the number, in kg/m3, no unit after it.

Worked cases, mass density given:
- CCn1cc[n+](CC)c1.O=S(=O)([N-]S(=O)(=O)C(F)(F)F)C(F)(F)F [1,3-diethylimidazolium bis[(trifluoromethyl)sulfonyl]imide]: 1394.3
- CCOS(=O)(=O)[O-].CCn1cc[n+](C)c1 [1-ethyl-3-methylimidazolium ethyl sulfate]: 1192.2
- CCn1cc[n+](C)c1.COS(=O)(=O)[O-] [1-ethyl-3-methylimidazolium methylsulfate]: 1232.6

Look up mass density: CCCCCCCCCCn1cc[n+](C)c1.O=S(=O)([N-]S(=O)(=O)C(F)(F)F)C(F)(F)F
1221.7

----------
experimental_conditions: 353.15 K; 30000 kPa; Liquid
measured_metric: mass density (kg/m3)
I only need the number, in kg/m3, no unit after it.

Worked cases, mass density given:
- CCn1cc[n+](CC)c1.O=S(=O)([N-]S(=O)(=O)C(F)(F)F)C(F)(F)F [1,3-diethylimidazolium bis[(trifluoromethyl)sulfonyl]imide]: 1431.6
- CCn1cc[n+](C)c1.COS(=O)(=O)[O-] [1-ethyl-3-methylimidazolium methylsulfate]: 1260
- CCOS(=O)(=O)[O-].CCn1cc[n+](C)c1 [1-ethyl-3-methylimidazolium ethyl sulfate]: 1218.4

Now, please, on to the next molecule.
Look up mass density: CCCCCCCCCCn1cc[n+](C)c1.O=S(=O)([N-]S(=O)(=O)C(F)(F)F)C(F)(F)F
1254.1

----------
experimental_conditions: 313.15 K; 30000 kPa; Liquid
Numbers after ± are expanded uncertainties.
measured_metric: mass density
A complete answer gives the number and then names the unit.

Worked cases, mass density given:
* CCn1cc[n+](CC)c1.O=S(=O)([N-]S(=O)(=O)C(F)(F)F)C(F)(F)F [1,3-diethylimidazolium bis[(trifluoromethyl)sulfonyl]imide] | 1470.9 ± 6.5 kg/m3
* CCCCCCCCCCn1cc[n+](C)c1.O=S(=O)([N-]S(=O)(=O)C(F)(F)F)C(F)(F)F | 1287.7 ± 4.3 kg/m3
* CCn1cc[n+](C)c1.COS(=O)(=O)[O-] [1-ethyl-3-methylimidazolium methylsulfate] | 1289.1 ± 4.3 kg/m3

Look up mass density: CCOS(=O)(=O)[O-].CCn1cc[n+](C)c1 [1-ethyl-3-methylimidazolium ethyl sulfate]
1245.8 ± 3.8 kg/m3

----------
experimental_conditions: 373.15 K; 2500 kPa; Liquid
measured_metric: mass density (kg/m3)
I only need the number, in kg/m3, no unit after it.

- CCCCCCCCCCn1cc[n+](C)c1.O=S(=O)([N-]S(=O)(=O)C(F)(F)F)C(F)(F)F: 1212.4

Look up mass density: CCOS(=O)(=O)[O-].CCn1cc[n+](C)c1 [1-ethyl-3-methylimidazolium ethyl sulfate]
1191.3

Look up mass density: CCn1cc[n+](C)c1.COS(=O)(=O)[O-] [1-ethyl-3-methylimidazolium methylsulfate]
1232.8

Look up mass density: CCn1cc[n+](CC)c1.O=S(=O)([N-]S(=O)(=O)C(F)(F)F)C(F)(F)F [1,3-diethylimidazolium bis[(trifluoromethyl)sulfonyl]imide]
1386.9

----------
experimental_conditions: 313.15 K; 10000 kPa; Liquid
Recorded mass density by entry
I only need the number, in kg/m3, no unit after it.

Look up mass density: CCn1cc[n+](C)c1.COS(=O)(=O)[O-] [1-ethyl-3-methylimidazolium methylsulfate]
1281

Look up mass density: CCn1cc[n+](CC)c1.O=S(=O)([N-]S(=O)(=O)C(F)(F)F)C(F)(F)F [1,3-diethylimidazolium bis[(trifluoromethyl)sulfonyl]imide]
1455.8

Look up mass density: CCOS(=O)(=O)[O-].CCn1cc[n+](C)c1 [1-ethyl-3-methylimidazolium ethyl sulfate]
1237.3

Look up mass density: CCCCCCCCCCn1cc[n+](C)c1.O=S(=O)([N-]S(=O)(=O)C(F)(F)F)C(F)(F)F
1273.2

----------
experimental_conditions: 353.15 K; 25000 kPa; Liquid
Numbers after ± are expanded uncertainties.
Recorded mass density by entry
A complete answer gives the number and then names the unit.

Worked cases, mass density given:
• CCCCCCCCCCn1cc[n+](C)c1.O=S(=O)([N-]S(=O)(=O)C(F)(F)F)C(F)(F)F = 1250.2 ± 3.6 kg/m3
• CCn1cc[n+](C)c1.COS(=O)(=O)[O-] [1-ethyl-3-methylimidazolium methylsulfate] = 1257.8 ± 3.7 kg/m3
• CCn1cc[n+](CC)c1.O=S(=O)([N-]S(=O)(=O)C(F)(F)F)C(F)(F)F [1,3-diethylimidazolium bis[(trifluoromethyl)sulfonyl]imide] = 1427.5 ± 5.3 kg/m3

Now, please, on to the next compound.
Look up mass density: CCOS(=O)(=O)[O-].CCn1cc[n+](C)c1 [1-ethyl-3-methylimidazolium ethyl sulfate]
1216.1 ± 3.3 kg/m3

----------
experimental_conditions: 293.15 K; 15000 kPa; Liquid
measured_metric: mass density (kg/m3)
I only need the number, in kg/m3, no unit after it.

Worked cases, mass density given:
• CCn1cc[n+](CC)c1.O=S(=O)([N-]S(=O)(=O)C(F)(F)F)C(F)(F)F [1,3-diethylimidazolium bis[(trifluoromethyl)sulfonyl]imide] = 1480.8
• CCn1cc[n+](C)c1.COS(=O)(=O)[O-] [1-ethyl-3-methylimidazolium methylsulfate] = 1298
• CCOS(=O)(=O)[O-].CCn1cc[n+](C)c1 [1-ethyl-3-methylimidazolium ethyl sulfate] = 1254.3

Now, please, on to the next compound.
Look up mass density: CCCCCCCCCCn1cc[n+](C)c1.O=S(=O)([N-]S(=O)(=O)C(F)(F)F)C(F)(F)F
1294.6
